SYSTEM_UNDER_TEST: PIM1 (Homo sapiens, UniProt P11309)
Sequence (P11309 whole entry): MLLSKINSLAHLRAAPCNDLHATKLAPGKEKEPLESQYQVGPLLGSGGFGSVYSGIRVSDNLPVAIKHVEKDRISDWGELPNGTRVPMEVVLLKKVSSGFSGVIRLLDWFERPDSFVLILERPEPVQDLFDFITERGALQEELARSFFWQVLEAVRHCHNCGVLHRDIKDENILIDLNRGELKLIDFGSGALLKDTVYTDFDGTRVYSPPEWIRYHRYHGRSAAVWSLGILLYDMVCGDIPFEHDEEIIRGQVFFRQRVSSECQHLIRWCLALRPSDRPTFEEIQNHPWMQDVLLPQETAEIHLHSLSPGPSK
PROCEDURE_TEXT: KinaseGlo Pim1 ATP depletion assay
Format: biochemical
READOUT_LABEL: IC50 (nM)

See these solved cases before continuing.
>  <COMPOUND>
Nc1cnc(-c2c(F)cccc2F)nc1C(=O)Nc1cnccc1[C@@H]1C[C@H](N)[C@]2(O)CCC[C@@H]2O1

>  <IC50 (nM)>
258

$$$$
>  <COMPOUND>
C[C@@H]1C[C@H](O)C[C@H](c2ccncc2NC(=O)c2ccc(F)c(-c3c(F)cccc3F)n2)O1 (stereo in doubt)

>  <IC50 (nM)>
4

$$$$
>  <COMPOUND>
CC1(C)O[C@@H](c2ccncc2NC(=O)c2ccc(F)c(-c3c(F)cccc3F)n2)C[C@H](O)[C@@H]1O

>  <IC50 (nM)>
1

$$$$
>  <COMPOUND>
Nc1ncc(-c2ccccc2)nc1C(=O)Nc1cnccc1[C@H]1C[C@@H](O)[C@H](O)[C@@H](CCl)O1

>  <IC50 (nM)>
1

$$$$

A: O=C(Nc1cnccc1[C@@H]1CCCCO1)c1ccc(F)c(-c2c(F)cccc2F)n1
B: O=C(Nc1cnccc1[C@]1(C(F)(F)F)C[C@H](O)C=CO1)c1ccc(F)c(-c2c(F)cccc2F)n1
(Q) API: POST /compare with A and B ; response names the item with higher IC50. API: response body contains the label of the selected item.
(A) B
(B: 27 nM, A: 3 nM)

====

SYSTEM_UNDER_TEST: PIM1 (Homo sapiens)
PROCEDURE_TEXT: Pim 1 AlphaScreen assay (high ATP)
Format: biochemical
TEST_SETTINGS: read-out: Pim1 IC50
READOUT_LABEL: IC50 (nM)

>  <MOLECULE>
C[C@]1(O)[C@H](N)C[C@H](c2ccncc2NC(=O)c2nc(-c3c(F)cccc3F)ncc2N)O[C@@H]1C1CC1

>  <ASSAY_RESULT>
2.15

$$$$

a: CC[C@]1(O)[C@H](N)C[C@H](c2ccncc2NC(=O)c2ccc(F)c(-c3c(F)cc(C)cc3F)n2)O[C@@H]1C
b: COCCOc1cc(F)c(-c2nc(C(=O)Nc3cnccc3C3C[C@@H](N)[C@H](O)[C@@H](C(C)C)O3)ccc2F)c(F)c1 (stereo in doubt)
c: Cc1cc(F)c(-c2nc(C(=O)Nc3cnccc3[C@@H]3C[C@H](N)[C@@H](O)[C@H](C4CC4)O3)ccc2F)c(F)c1
d: C[C@@]1(O)[C@@H](O)C[C@@H](c2ccncc2NC(=O)c2nc(-c3c(F)cccc3F)ncc2N)O[C@H]1C1CC1
(Q) I would appreciate it if you could sort these 4 molecules by IC50, starting from the smallest number. Output spec: a listing of the labels in the requested order.
(A) a, b, c, d
(a: 0.03 nM, b: 0.05 nM, c: 3.4 nM, d: 989 nM)

====

SYSTEM_UNDER_TEST: hERG (Homo sapiens, UniProt Q12809)
Construct: host or cells: crude membrane suspension
Sequence (Q12809 whole entry): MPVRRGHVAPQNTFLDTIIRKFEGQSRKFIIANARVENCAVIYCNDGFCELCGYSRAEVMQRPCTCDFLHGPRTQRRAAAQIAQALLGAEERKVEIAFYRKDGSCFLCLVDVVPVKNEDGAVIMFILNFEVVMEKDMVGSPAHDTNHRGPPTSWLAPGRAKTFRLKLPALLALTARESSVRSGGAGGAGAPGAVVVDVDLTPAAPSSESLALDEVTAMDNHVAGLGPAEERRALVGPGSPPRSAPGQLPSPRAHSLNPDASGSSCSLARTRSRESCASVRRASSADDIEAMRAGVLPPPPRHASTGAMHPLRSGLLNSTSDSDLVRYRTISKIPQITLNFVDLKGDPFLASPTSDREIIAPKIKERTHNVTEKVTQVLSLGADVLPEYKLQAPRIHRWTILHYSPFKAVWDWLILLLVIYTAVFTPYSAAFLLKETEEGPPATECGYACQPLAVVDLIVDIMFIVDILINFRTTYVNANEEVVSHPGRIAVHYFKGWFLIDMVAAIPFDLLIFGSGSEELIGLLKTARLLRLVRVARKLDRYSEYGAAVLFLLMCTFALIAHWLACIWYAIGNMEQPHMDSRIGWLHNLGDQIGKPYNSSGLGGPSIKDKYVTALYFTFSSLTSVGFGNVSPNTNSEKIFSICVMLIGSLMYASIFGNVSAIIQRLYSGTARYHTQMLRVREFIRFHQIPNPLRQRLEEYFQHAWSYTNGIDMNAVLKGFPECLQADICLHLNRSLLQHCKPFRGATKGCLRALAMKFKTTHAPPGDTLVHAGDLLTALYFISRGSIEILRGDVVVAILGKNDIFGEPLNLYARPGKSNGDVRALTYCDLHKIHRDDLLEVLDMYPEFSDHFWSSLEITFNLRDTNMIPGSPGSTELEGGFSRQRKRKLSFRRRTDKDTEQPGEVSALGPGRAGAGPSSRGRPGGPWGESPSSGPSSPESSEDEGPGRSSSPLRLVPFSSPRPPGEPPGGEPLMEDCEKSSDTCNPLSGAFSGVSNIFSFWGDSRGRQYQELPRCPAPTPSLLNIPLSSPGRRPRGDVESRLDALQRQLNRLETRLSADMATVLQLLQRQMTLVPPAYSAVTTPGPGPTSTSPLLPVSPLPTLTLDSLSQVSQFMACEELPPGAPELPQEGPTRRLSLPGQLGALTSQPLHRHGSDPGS
PROCEDURE_TEXT: hERG binding assay ([3H] dofetilide displacement)
TEST_SETTINGS: dofetilide displacement; read-out: HERGdof IC50
pIC50: −log10 of the molar value.
READOUT_LABEL: pIC50

// known answers, use as guide
>  <COMPOUND>
C[C@@H]1O[C@H](c2ccncc2NC(=O)c2nc(-c3ccccc3)cnc2N)C[C@H](O)[C@@]1(C)O [Example 86]

>  <READOUT_LABEL>
pIC50

>  <ASSAY_RESULT>
4.60

$$$$
>  <COMPOUND>
Nc1ncc(-c2ccccc2)nc1C(=O)Nc1cnccc1[C@H]1C[C@@H](O)[C@@]2(O)CCC[C@H]2O1 [Example 195]

>  <READOUT_LABEL>
pIC50

>  <ASSAY_RESULT>
< 4.52

$$$$
>  <COMPOUND>
CC1C(c2ccncc2NC(=O)c2ccc(F)c(-c3c(F)cccc3F)n2)OC(C)[C@@H](O)C1O (stereo in doubt) [Example 64]

>  <READOUT_LABEL>
pIC50

>  <ASSAY_RESULT>
< 4.52

$$$$

(Q) Param item = C[C@H]1O[C@@H](c2ccncc2NC(=O)c2nc(-c3ccccc3)ncc2N)C[C@@H](O)[C@]1(C)O [Example 32] ; retrieve measured pIC50.
(A) < 4.52

(Q) Find the recorded pIC50 belonging to C[C@@H]1O[C@H](c2ccncc2NC(=O)c2ccc(F)c(-c3c(F)cccc3F)n2)C[C@H](N)[C@H]1O [Example 115] and report it.
(A) 4.66

(Q) What does the record list as pIC50 for Nc1cnc(-c2c(F)cccc2F)nc1C(=O)Nc1cnccc1[C@H]1C[C@@H](N)[C@@]2(O)CCC[C@H]2O1 [Example 213] ?
(A) < 4.52

(Q) Quick one: pIC50 of CC[C@]1(O)[C@H](C)O[C@H](c2ccncc2NC(=O)c2ccc(F)c(-c3c(F)cccc3F)n2)C[C@@H]1O (stereo in doubt) [Example 76] ?
(A) < 4.52
